tested on: AGP; experiment: UV titration (Benesi–Hildebrand) with AGP; format: binding, human; settings: human, pH 7.4, UV titration, n = 3; 1 μM AGP, pH 7.4 phosphate buffer, 24 °C, 278 nm; read-out: logKAGP ± Stdev (logarithm of stability constant) (converted)
Entries annotated with measured Kd
Report the value in µM with no unit label.

The examples below pair each entry with its known result.
- COc1ccc2[nH]c([S@+]([O-])Cc3ncc(C)c(OC)c3C)nc2c1: 20.4
- COc1ccc2nc([S@@+]([O-])Cc3ncc(C)c(OC)c3C)[nH]c2c1: 33.9
- COCCCOc1ccnc(C[S@+]([O-])c2nc3ccccc3[nH]2)c1C: 17.4
- COCCCOc1ccnc(C[S@@+]([O-])c2nc3ccccc3[nH]2)c1C: 31.6

Query block: Item `Cc1c(OCC(F)(F)F)ccnc1C[S@+]([O-])c1nc2ccccc2[nH]1` has what recorded Kd?
Result block: 14.8

Query block: Item `Cc1c(OCC(F)(F)F)ccnc1C[S@@+]([O-])c1nc2ccccc2[nH]1` has what recorded Kd?
Result block: 27.5

---

target: human serum albumin (HSA) (Homo sapiens); test: Displacement chromatography on HSA column with warfarin and ibuprofen as competitors; assay type: binding; settings: warfarin 0.1 mM, IPA:10 mM pH 7 phosphate buffer 1:99, 25 °C
result_type: k retention factor
Give a plain numeric answer without units written out.

The examples below pair each entry with its known result.
* Cc1c(OCC(F)(F)F)ccnc1C[S@@+]([O-])c1nc2ccccc2[nH]1 | 10.51
* COc1ccc2[nH]c([S+]([O-])Cc3ncc(C)c(OC)c3C)nc2c1 (stereo not shown) | 6.98
* Cc1c(OCC(F)(F)F)ccnc1C[S@+]([O-])c1nc2ccccc2[nH]1 | 7.44

Query block: API: value(readout=k retention factor, system=human serum albumin (HSA) (Homo sapiens)) for record COCCCOc1ccnc(C[S+]([O-])c2nc3ccccc3[nH]2)c1C (stereo not shown)
Result block: 4.73

---

target: human serum albumin (HSA) (Homo sapiens, UniProt P02768); assay: Displacement chromatography on HSA column with warfarin and ibuprofen as competitors; format: binding; settings: ibuprofen 0.1 mM, IPA:10 mM pH 7 phosphate buffer 1:99, 25 °C
Sequence (P02768 25-609): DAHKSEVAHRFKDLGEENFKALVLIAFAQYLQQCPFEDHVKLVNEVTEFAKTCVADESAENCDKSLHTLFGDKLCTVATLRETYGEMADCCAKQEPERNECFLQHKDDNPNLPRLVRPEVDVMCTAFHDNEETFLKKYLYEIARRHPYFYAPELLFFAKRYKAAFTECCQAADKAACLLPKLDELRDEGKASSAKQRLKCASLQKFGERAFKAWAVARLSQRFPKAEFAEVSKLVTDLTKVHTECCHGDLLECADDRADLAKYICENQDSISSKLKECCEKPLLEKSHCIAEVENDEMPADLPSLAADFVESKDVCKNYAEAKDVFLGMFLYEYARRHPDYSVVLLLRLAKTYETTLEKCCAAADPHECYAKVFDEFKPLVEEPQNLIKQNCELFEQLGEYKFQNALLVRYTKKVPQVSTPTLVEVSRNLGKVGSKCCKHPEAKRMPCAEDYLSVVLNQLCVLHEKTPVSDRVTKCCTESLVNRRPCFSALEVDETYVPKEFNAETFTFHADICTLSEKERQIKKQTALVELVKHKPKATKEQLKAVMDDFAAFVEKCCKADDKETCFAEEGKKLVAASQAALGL
Entries annotated with measured k retention factor

The examples below pair each entry with its known result.
• COCCCOc1ccnc(C[S+]([O-])c2nc3ccccc3[nH]2)c1C (stereo not shown) = 5.05
• COc1ccc2[nH]c([S+]([O-])Cc3ncc(C)c(OC)c3C)nc2c1 (stereo not shown) = 5.22
• Cc1c(OCC(F)(F)F)ccnc1C[S@@+]([O-])c1nc2ccccc2[nH]1 = 7.60

Query compound follows.
Query block: Item `Cc1c(OCC(F)(F)F)ccnc1C[S@+]([O-])c1nc2ccccc2[nH]1` has what recorded k retention factor?
Result block: 7.60

---

Entries annotated with measured k retention factor
target: human serum albumin (HSA) (Homo sapiens); test: Displacement chromatography on HSA column with warfarin and ibuprofen as competitors; type: binding; conditions: warfarin 0.01 mM, IPA:10 mM pH 7 phosphate buffer 1:99, 25 °C
Give a plain numeric answer without units written out.

The examples below pair each entry with its known result.
• COCCCOc1ccnc(C[S+]([O-])c2nc3ccccc3[nH]2)c1C (stereo not shown) = 5.81
• Cc1c(OCC(F)(F)F)ccnc1C[S@+]([O-])c1nc2ccccc2[nH]1 = 9.03
• Cc1c(OCC(F)(F)F)ccnc1C[S@@+]([O-])c1nc2ccccc2[nH]1 = 14.84

Query block: API: value(readout=k retention factor, system=human serum albumin (HSA) (Homo sapiens)) for record COc1ccc2[nH]c([S+]([O-])Cc3ncc(C)c(OC)c3C)nc2c1 (stereo not shown)
Result block: 8.57
